target-or-test-system: HDAC 8 (Homo sapiens, UniProt Q9BY41)
Sequence (Q9BY41 1-377): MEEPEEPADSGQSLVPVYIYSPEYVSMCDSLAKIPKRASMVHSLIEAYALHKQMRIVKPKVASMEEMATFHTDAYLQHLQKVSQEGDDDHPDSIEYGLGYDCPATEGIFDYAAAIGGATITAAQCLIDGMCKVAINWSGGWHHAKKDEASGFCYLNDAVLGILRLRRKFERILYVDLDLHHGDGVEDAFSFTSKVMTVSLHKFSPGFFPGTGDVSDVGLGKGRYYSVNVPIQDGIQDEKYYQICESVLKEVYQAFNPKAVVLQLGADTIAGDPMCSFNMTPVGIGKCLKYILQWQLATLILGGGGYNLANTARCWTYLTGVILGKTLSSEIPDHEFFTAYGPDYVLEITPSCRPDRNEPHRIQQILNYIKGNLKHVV
test-details: Fluorometric HDAC assay, recombinant HDAC8
experimental-conditions: recombinant protein; read-out: rHDAC 8 IC50
property-label: IC50 (nM)

- COc1cccc(CC(=O)Nc2ccc(C(=O)NO)cc2)c1: 863
